// provenance: PubChem BioAssay (Tox21)

# assay-method-text: qHTS RealTime-Glo MT Cell Viability Assay in HepG2 cells - 16 hour (AID 1224885); also: % is scaled to controls: 0 for no effect and ±100 for the full control effect; nearly all actives have a fitted effect of over 50% in size
# stated-conditions: RealTime-Glo luminescence; series mostly up to 76.8 µM
Inconclusive results are not listed. Active and inactive are the calls of the source. Calls follow the shape of the dose curve; as a rule, active = well fitted cell-killing curve with a large enough effect in the repeat runs; inconclusive = weak or mixed curves; inactive = flat fitted curve, though single readings scatter.
measured-property: activity change, negative = cytotoxic

compound | assay-result
Nc1ccc(/C=C/c2ccc(N)cc2S(=O)(=O)O)c(S(=O)(=O)O)c1 | 4.55% [at 0.29 µM] (inactive)
Cn1c(=O)c2c(ncn2CC2OCCO2)n(C)c1=O | inactive
CCCCC(CC)CNC(=O)CC(C)OC(=O)CCC(=O)O (stereo not drawn) | inactive
CCC(C)(C)C1CCC(=O)CC1 | inactive
C=C[C@@H](C)CCC=C(C)C | inactive

Per the record, "C=CCOc1c(Br)cc(Br)cc1Br" has activity change, negative = cytotoxic of inactive

# compound "Cc1cccc(Nc2ccncc2S(=O)(=O)NC(=O)NC(C)C)c1" ; its activity change, negative = cytotoxic = inactive

Measured activity change, negative = cytotoxic of "C[C@@H]1C[C@H]2[C@@H]3C[C@H](F)C4=CC(=O)C=C[C@]4(C)[C@@]3(F)[C@@H](O)C[C@]2(C)[C@@]1(O)C(=O)CO" : inactive

According to the records, this compound "O=C(/C=C/c1ccccc1)NCCO" displays activity change, negative = cytotoxic of inactive

Summary for this compound, "O=C(O)Cc1cccc(-c2cc(CCCCCCc3ccc(O[C@H]4O[C@H](CO)[C@@H](O)[C@H](O)[C@@H]4O)c(-c4cccc(CC(=O)O)c4)c3)ccc2O[C@H]2O[C@H](CO)[C@@H](O)[C@H](O)[C@@H]2O)c1" : activity change, negative = cytotoxic is 17.8% [at 0.29 µM] (inactive)

Entry "C[Si]1(C)N[Si](C)(C)N[Si](C)(C)N1" — recorded activity change, negative = cytotoxic = inactive

Documented activity change, negative = cytotoxic of "CCCCC/C=C/CC(=O)OC" : inactive

---

# assay-method-text: qHTS assay to test for compound auto fluorescence at 590 nm (red) in HEK293 cell free culture (AID 720683); also: % is scaled to controls: 0 for no effect and ±100 for the full control effect
# stated-conditions: cell-free medium autofluorescence, Ex540/Em590 red; series mostly up to 91.3 µM
The source made the active and inactive calls. Calls follow the shape of the dose curve; as a rule, active = well fitted curve in the direction sought with a large enough effect in the repeat runs; inconclusive = weak or mixed curves; inactive = flat fitted curve, though single readings scatter.
measured-property: fluorescence, % of fluorescent control

# annotated cases, reported fluorescence, % of fluorescent control shown
chem-smiles | measured-property | assay-result
O=CN1CCOCC1 | fluorescence, % of fluorescent control | inactive
Nc1ccc(/C=C/c2ccc(N)cc2S(=O)(=O)O)c(S(=O)(=O)O)c1 | fluorescence, % of fluorescent control | inactive
Nc1ccnc(=O)[nH]1 | fluorescence, % of fluorescent control | inactive
Nc1ccc(S(=O)(=O)NC(=O)c2ccccc2)cc1 | fluorescence, % of fluorescent control | -0.201% [at 18.6 µM] (inactive)
CC(C)(CO)[C@@H](O)C(=O)NCCCO | fluorescence, % of fluorescent control | inactive

The reported value for "COc1cc2c3cc1Oc1cc(ccc1O)C[C@@H]1c4c(cc(OC)c(O)c4Oc4ccc(cc4)C[C@@H]3N(C)CC2)CC[N+]1(C)C" in terms of fluorescence, % of fluorescent control is inactive

response.value for "COc1cc2c(Nc3ccc(Br)cc3F)ncnc2cc1OCC1CCN(C)CC1" (field: fluorescence, % of fluorescent control) = inactive

---

# assay-method-text: qHTS assay to identify small molecule agonists of the farnesoid-X-receptor (FXR) signaling pathway - cell viability counter screen (AID 743218); also: % is scaled to controls: 0 for no effect and ±100 for the full control effect; nearly all actives have a fitted effect of over 45% in size
# stated-conditions: FXR-bla HEK293T viability, CellTiter-Glo luminescence, 16 h; series mostly up to 62.6 µM
Results filed as inconclusive are left out. Activity calls are given as the source filed them. Calls come from the whole dose curve; as a rule, active = well fitted cell-killing curve with a large enough effect in the repeat runs; inconclusive = weak or mixed curves, or effect the other way; inactive = no such curve, though single readings can be large or run the other way.
measured-property: viability change, negative = cytotoxic

compound | viability change, negative = cytotoxic
Nc1cc(Cl)cc(S(=O)(=O)O)c1O | inactive
CCOC(=O)OCC/C(SC(=O)OCC)=C(\C)N(C=O)Cc1cnc(C)nc1N | inactive
Nc1ccc(/C=C/c2ccc(N)cc2S(=O)(=O)O)c(S(=O)(=O)O)c1 | 14.9% [at 0.55 µM] (inactive)
CCCCCCCCCCC | inactive
CCCCCCCC/C=C\CCCCCCCC(=O)OC[C@@H](O)[C@H]1OC[C@H](O)[C@H]1O | inactive
CCN(Cc1cccc(S(=O)(=O)O)c1)c1ccccc1 | inactive
CO/N=C(/C(=O)N[C@@H]1C(=O)N2C(C(=O)O)=C(Cn3nnc(C)n3)CS[C@H]12)c1csc(N)n1 | inactive
c1ccccc1 | inactive

So for "CCNC(=O)NCCCOc1cccc(CN2CCCCC2)c1" , the logged viability change, negative = cytotoxic turned out to be inactive

Input CCCCCC1Nc2cc(C(F)(F)F)c(S(N)(=O)=O)cc2S(=O)(=O)N1 (configuration not stated) . Output viability change, negative = cytotoxic: inactive

GET /value?item= "CC(C)c1ccccc1O" &field=viability change, negative = cytotoxic returns inactive

In plain terms, "O=CO" has a documented viability change, negative = cytotoxic of 0.465% [at 5.95 µM] (inactive)

---

# target-under-test: Cytochrome P450 2C19 (Homo sapiens)
# assay-method-text: Cytochrome P450 Family 2 Subfamily C Member 19 (CYP2C19) small molecule antagonists: luciferase reporter qHTS assay (AID 1671197); also: nearly all actives have a fitted effect of over 65% in size
# stated-conditions: P450-Glo CYP2C19 enzyme, luciferin luminescence, 1 h; series mostly up to 115 µM
Inconclusive results are not listed. The source made the active and inactive calls. Calls come from the whole dose curve; as a rule, active = well fitted inhibition curve with a large enough effect in the repeat runs; inconclusive = weak or mixed curves; inactive = no such curve, though single readings can be large or run the other way.
Log the outcome using a class from active, inactive

q: Hi team, can someone confirm the assay call for CC(=O)OC(C(=O)c1ccccc1)c1ccccc1 (stereo not given) ?
a: active

q: Assay result, entry "CC(C)(CO)[C@@H](O)C(=O)NCCCO" — outcome?
a: inactive

q: Please state the recorded outcome for this compound: C=CC(C)(O)CC/C=C(\C)CC (stereo not given)
a: active

q: Entry CC(C)CCCC(C)CC=O (stereo not given) : call = ?
a: active

q: Assay result, entry "CCCCCCCCCCCCCC(=O)OC" — outcome?
a: inactive

q: Returns: the outcome recorded for "c1ccccc1" in this assay.
a: inactive

q: // outcome(item) with item = "O=C(O)/C=C/c1ccccc1"
a: inactive

q: Which outcome did this test record for the compound "CN(C)CCOCCN(C)CCO" ?
a: inactive

q: Called result for "C1=C\CC/C=C\CC/1"
a: inactive

q: Please state the recorded outcome for this compound: "CC1=CC[C@H](CC=O)C1(C)C"
a: inactive

q: Could you please tell me the result logged for "CCN1CN(CC)CN(CC)C1" in this assay?
a: inactive

q: I'd appreciate the recorded outcome for CCCCCCCCCCCCC1CO1 (stereo not given) from this test.
a: inactive

q: For "NC(=O)C1(N2CCCCC2)CCN(CCCC(=O)c2ccc(F)cc2)CC1" , what call appears in the results of this test?
a: inactive

q: Call for entry "O=C(O)C(=O)Nc1cccc(-c2nn[nH]n2)c1" :
a: inactive

q: Query: recorded result category for "CCCCCC(=O)OCC" in this test
a: inactive

---

# target-under-test: Peroxisome proliferator-activated receptor gamma (Homo sapiens) (UniProt P37231)
# Sequence (P37231 whole entry, looked up): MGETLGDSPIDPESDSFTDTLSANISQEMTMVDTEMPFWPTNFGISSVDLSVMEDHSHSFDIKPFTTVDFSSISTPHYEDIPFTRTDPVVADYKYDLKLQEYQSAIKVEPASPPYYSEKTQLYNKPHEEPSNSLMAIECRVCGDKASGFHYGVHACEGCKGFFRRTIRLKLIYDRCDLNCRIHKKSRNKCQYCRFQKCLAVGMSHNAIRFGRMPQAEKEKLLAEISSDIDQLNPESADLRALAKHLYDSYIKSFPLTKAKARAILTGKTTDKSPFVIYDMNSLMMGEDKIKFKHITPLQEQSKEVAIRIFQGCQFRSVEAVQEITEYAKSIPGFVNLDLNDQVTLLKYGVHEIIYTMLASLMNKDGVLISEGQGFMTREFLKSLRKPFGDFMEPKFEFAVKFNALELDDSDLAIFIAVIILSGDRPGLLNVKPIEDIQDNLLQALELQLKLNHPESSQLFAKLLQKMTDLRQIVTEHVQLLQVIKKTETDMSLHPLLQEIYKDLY
# assay-method-text: qHTS assay to identify small molecule antagonists of the peroxisome proliferator-activated receptor gamma (PPARg) signaling pathway (AID 743191); also: % is scaled to controls: 0 for no effect and ±100 for the full control effect; nearly all actives have a fitted effect of over 30% in size
# stated-conditions: HEK293H PPARg-UAS-bla, beta-lactamase ratio, antagonist, 17 h; series mostly up to 62.6 µM
Results filed as inconclusive are left out. The source made the active and inactive calls. Calls come from the whole dose curve.
measured-property: ratio activity, negative = inhibition

Guide cases for ratio activity, negative = inhibition, answers given:
molecule | target-under-test | measured-property | assay-result
FC(F)(F)/C(=N\OCC1OCCO1)c1ccc(Cl)cc1 | Peroxisome proliferator-activated receptor gamma (Homo sapiens) (UniProt P37231) | ratio activity, negative = inhibition | inactive
COC(=O)CCC(=O)O | Peroxisome proliferator-activated receptor gamma (Homo sapiens) (UniProt P37231) | ratio activity, negative = inhibition | inactive
CC(=O)N(CC(O)CO)c1c(I)c(C(=O)NCC(O)CO)c(I)c(C(=O)NCC(O)CO)c1I (stereo unspecified) | Peroxisome proliferator-activated receptor gamma (Homo sapiens) (UniProt P37231) | ratio activity, negative = inhibition | inactive
Cc1ccccc1N1CCN(CCc2nnc3n2CCCC3)CC1 | Peroxisome proliferator-activated receptor gamma (Homo sapiens) (UniProt P37231) | ratio activity, negative = inhibition | inactive

Readout ratio activity, negative = inhibition for "Cc1nc([N+](=O)[O-])cn1-c1ccc([N+](=O)[O-])cc1" , test system Peroxisome proliferator-activated receptor gamma (Homo sapiens) (UniProt P37231), was inactive

Record "Cc1c(C(C)C)c(=O)n(-c2ccccc2)n1C" has Peroxisome proliferator-activated receptor gamma (Homo sapiens) (UniProt P37231) ratio activity, negative = inhibition equal to inactive

Test item "CC(=O)Nc1ncc([N+](=O)[O-])s1" ; Peroxisome proliferator-activated receptor gamma (Homo sapiens) (UniProt P37231); reported ratio activity, negative = inhibition was inactive

Measured on Peroxisome proliferator-activated receptor gamma (Homo sapiens) (UniProt P37231), "CCC(=O)c1ccc(O)cc1" has a documented ratio activity, negative = inhibition of inactive

# lookup: "CCCCCCCCOC(C)=O" on Peroxisome proliferator-activated receptor gamma (Homo sapiens) (UniProt P37231), ratio activity, negative = inhibition = inactive

Record "CNC(=O)NC" / Peroxisome proliferator-activated receptor gamma (Homo sapiens) (UniProt P37231), ratio activity, negative = inhibition recorded as inactive

Assay Peroxisome proliferator-activated receptor gamma (Homo sapiens) (UniProt P37231), sample "CC(=O)OC[C@H]1O[C@@H](OC(C)=O)[C@H](OC(C)=O)[C@@H]1OC(C)=O" , ratio activity, negative = inhibition read: inactive

// molecule O=C1NC2NC(=O)NC2N1 (stereo unspecified) , assay Peroxisome proliferator-activated receptor gamma (Homo sapiens) (UniProt P37231), ratio activity, negative = inhibition value: inactive

Case "CCOC(=O)OCC/C(SC(=O)OCC)=C(\C)N(C=O)Cc1cnc(C)nc1N" , Peroxisome proliferator-activated receptor gamma (Homo sapiens) (UniProt P37231), ratio activity, negative = inhibition recorded as inactive

Bench note, Peroxisome proliferator-activated receptor gamma (Homo sapiens) (UniProt P37231): entry "CN[C@@H]1[C@H](O)[C@H](NC)[C@H]2O[C@@]3(O)C(=O)C[C@@H](C)O[C@H]3O[C@@H]2[C@H]1O" , its ratio activity, negative = inhibition = inactive

So the reported ratio activity, negative = inhibition for "CC(C)C(=O)c1ccccc1" , on Peroxisome proliferator-activated receptor gamma (Homo sapiens) (UniProt P37231), turned out to be inactive

Log: Peroxisome proliferator-activated receptor gamma (Homo sapiens) (UniProt P37231), molecule "O=c1[nH]c(=O)c2[nH]c(=O)[nH]c2[nH]1" , ratio activity, negative = inhibition = -6.65% [at 13.2 µM] (inactive)

Note to self: ratio activity, negative = inhibition of "CCc1nccnc1C" with Peroxisome proliferator-activated receptor gamma (Homo sapiens) (UniProt P37231) was inactive

Kindly note: Peroxisome proliferator-activated receptor gamma (Homo sapiens) (UniProt P37231), "Nc1ccc(S(=O)(=O)NC(=O)c2ccccc2)cc1" , ratio activity, negative = inhibition value reported: inactive

Record "Cc1ccccc1C" / Peroxisome proliferator-activated receptor gamma (Homo sapiens) (UniProt P37231), ratio activity, negative = inhibition recorded as inactive

The reported Peroxisome proliferator-activated receptor gamma (Homo sapiens) (UniProt P37231) ratio activity, negative = inhibition of CCC(=O)OCCC(C)CCC=C(C)C (stereo unspecified) is inactive

// ratio activity, negative = inhibition (Peroxisome proliferator-activated receptor gamma (Homo sapiens) (UniProt P37231)) for "CCCCCCCCCCCCCCCC(=O)NCCO" = inactive

Log: Peroxisome proliferator-activated receptor gamma (Homo sapiens) (UniProt P37231), molecule "CCCCCCCCCCC" , ratio activity, negative = inhibition = inactive
